These measurements were taken from the supplement of paper PMC9170038.

Catalogue of apparent KD of MS2 coat protein values
Test system: MS2 coat protein
protocol.details: apparent KD of MS2 coat protein; designed switch direction (-1 OFF switch, 1 ON switch): 1; higher = weaker reporter binding
measurement.context: input ligand: none
# unit: nM | format: bare number

Known apparent KD of MS2 coat protein results, listed for orientation:
sequence: UGAACCUUCACAGGAUAUCAUGCGAAAAUUGCGUGAGAAGGGUGAAUGUGGUGUUCAUAGUUGCACAUGAGGAUCACCCAUGUA [SameState NG1 #52] (Eterna round: R96, puzzle: Same State NG 1)
study.target: MS2 coat protein
apparent KD of MS2 coat protein, nM: 156
//
sequence: UUACUCAUGUAAGGAUAUGCAGCCGAAACGGCUGCAGAAGGUACUAAAAUACAUGAGGAUCACCCAUGUCUAAUUAAUUAAGAC [Mat - Same State NG 1 - JL mod - D84] (Eterna round: R96, puzzle: Same State NG 1)
study.target: MS2 coat protein
apparent KD of MS2 coat protein, nM: 66.5
//
sequence: GCGAGCGUACUUGCUACAUGAGGAUCACCCAUGUUUAUUGGACAGGAUAUGGUACCGUUUCGGUACCAGAAGGGUCCACAUGUA [JL SSNG3 3.85] (Eterna round: R96, puzzle: Same State NG 3)
study.target: MS2 coat protein
apparent KD of MS2 coat protein, nM: 549

Input line: Given the sequence AGGCUCGUGCUAGGAUAUCUAGGAUAUGGACGAGGAUUACCCGAGCAGCAUUAGCGCACCAGAGGAGAGAAGGAGCGACAUGCG [pwkr ssNG2 2F5 2FMN.11] (Eterna round: R96, puzzle: Same State NG 2) , what is its reported apparent KD of MS2 coat protein?
Output line: 16
